Source listed as patent US20120040951A1.

# Tested on: phospho-ERK in melanoma derived WM-266-4 cells
# Assay Comment: Mechanistic cellular assay for Raf kinase activity (phospho-ERK, Bio-Plex)
# Type: cell-based
# Run Parameters: Homo sapiens, treated 1-2 hr at 37° C., serum free medium, read-out: pERK EC50
Endpoint Name: EC50

Hello, I am looking for reported EC50 with phospho-ERK in melanoma derived WM-266-4 cells for `O=C(Nc1ccc(Cl)c(C(F)(F)F)c1)c1ccc(CNC(=O)c2cnn3ccccc23)cc1` . Could you help? 1 to 10 µM

Hello, I am looking for reported EC50 with phospho-ERK in melanoma derived WM-266-4 cells for C[C@@H](NC(=O)c1cc2c(cn1)ncn2C)c1cnc(Nc2ccc(Cl)c(C(F)(F)F)c2)cn1 (single isomer, unassigned) . Could you help? ≤ 0.1 µM

Hello, I am looking for reported EC50 with phospho-ERK in melanoma derived WM-266-4 cells for `C[C@H](NC(=O)c1cc2c(cn1)ncn2C)c1cnc(Nc2ccc(C(F)(F)F)cc2)s1` . Could you help? 1 to 10 µM

Hello, I am looking for reported EC50 with phospho-ERK in melanoma derived WM-266-4 cells for CCn1cnc2cnc(C(=O)NC(C)c3cnc(Nc4ccc(C(F)(F)F)nc4)s3)cc21 (stereo not shown) . Could you help? 0.1 to 1 µM

###

Would you kindly list pEC50 for each of these compounds?
# Test system: phospho-ERK in melanoma derived WM-266-4 cells
# Assay Comment: Mechanistic cellular assay for Raf kinase activity (phospho-ERK, Bio-Plex)
# Format: cell-based
# Run Parameters: Homo sapiens, treated 1-2 hr at 37° C., serum free medium, read-out: pERK EC50
pEC50: −log10 of the molar value.

Look up pEC50 for this compound: C[C@@H](NC(=O)c1ccc2ncccc2c1)c1ncc(C(=O)Nc2cc(C(F)(F)F)c(Cl)cn2)s1 [Example 58] ≥ 7.00

Look up pEC50 for this compound: Cc1c(C(=O)N[C@H](C)c2ncc(C(=O)Nc3cc(C(F)(F)F)c(Cl)cn3)s2)cnn1-c1ccccc1 [Example 114] 5.00 to 6.00

Look up pEC50 for this compound: C[C@@H](NC(=O)c1ccc2c(c1)OCCO2)c1ncc(C(=O)Nc2cc(C(F)(F)F)c(Cl)cn2)s1 [Example 70] 6.00 to 7.00

###

Would you kindly list IC50 for each of these compounds?
# System: V599E Raf (Homo sapiens, UniProt P15056, V600E)
# Sequence (P15056 whole entry V600E): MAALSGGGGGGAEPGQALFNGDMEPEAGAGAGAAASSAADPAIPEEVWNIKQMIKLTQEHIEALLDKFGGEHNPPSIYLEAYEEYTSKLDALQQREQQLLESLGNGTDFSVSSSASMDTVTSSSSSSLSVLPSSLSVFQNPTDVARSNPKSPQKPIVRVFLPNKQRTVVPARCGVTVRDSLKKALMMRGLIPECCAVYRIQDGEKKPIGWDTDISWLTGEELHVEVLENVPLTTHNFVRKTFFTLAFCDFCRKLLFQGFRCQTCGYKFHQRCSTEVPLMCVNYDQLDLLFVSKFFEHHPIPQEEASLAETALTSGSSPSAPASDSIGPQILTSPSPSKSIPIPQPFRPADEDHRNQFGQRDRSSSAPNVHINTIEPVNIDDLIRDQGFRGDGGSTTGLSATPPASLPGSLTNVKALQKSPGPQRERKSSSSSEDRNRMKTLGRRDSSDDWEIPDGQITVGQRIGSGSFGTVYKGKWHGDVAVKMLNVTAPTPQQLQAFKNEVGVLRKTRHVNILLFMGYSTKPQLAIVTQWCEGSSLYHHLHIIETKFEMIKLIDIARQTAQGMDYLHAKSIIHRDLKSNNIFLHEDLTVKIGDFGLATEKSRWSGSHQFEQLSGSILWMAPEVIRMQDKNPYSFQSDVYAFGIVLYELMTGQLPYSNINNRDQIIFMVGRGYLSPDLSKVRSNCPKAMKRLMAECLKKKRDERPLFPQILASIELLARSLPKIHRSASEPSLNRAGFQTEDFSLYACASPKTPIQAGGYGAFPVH
# Assay Comment: Biochemical FRET assay, mutant Raf (phosphorylation of MEK)
# Run Parameters: 0.125 nM V599E Raf, 100 nM biotin-MEK, 25 μM ATP, read-out: Raf (mut) inhibition
# Experimental: (1) Biochemical FRET Assay […] Inhibitors were diluted 4-fold in 100% DMSO and added to a final concentration of 10 μM to 40 μM to a solution containing 100 nM biotin-MEK, 0.125 nM V599E Raf in 50 mM HEPES, pH 7.4, 60 mM NaCl, 3 mM MgCl2, 2 mM DTT, 0.25 mM MnCl2, 0.01% BSA, and 0.01% Tween-20 and incubated for 20 minutes at room temperature. The kinase reaction was started by the addition of 25 μM ATP to a final volume of 45 μl and allowed to progress for 60 minutes. […]

Look up IC50 for this compound: CC(NC(=O)c1cc2c(cn1)ncn2CC(=O)O)c1cnc(Nc2ccc(C(F)(F)F)cc2)s1 (stereo not shown) [Example 354] ≤ 100 nM

Look up IC50 for this compound: CCn1cnc2cnc(C(=O)N[C@H](C)c3cnc(Nc4ccc(C(F)(F)F)cc4)cn3)cc21 [Example 174] ≤ 100 nM

Look up IC50 for this compound: CC(NC(=O)c1cc2c(cn1)ncn2C)c1cnc(Nc2cc(C(C)(C)C)ccc2F)s1 (stereo not shown) [Example 279] ≤ 100 nM

Look up IC50 for this compound: C[C@@H](NC(=O)c1cn(-c2ccncc2)cn1)c1ncc(C(=O)Nc2cc(C(F)(F)F)c(Cl)cn2)s1 [Example 148] ≤ 100 nM

Look up IC50 for this compound: CC(NC(=O)c1cc2c(cn1)ncn2C)c1ncc(C(=O)Nc2cc(C(C)(C)C)on2)s1 (stereo not shown) [Example 43] ≤ 100 nM

Look up IC50 for this compound: CCn1cnc2cnc(C(=O)NC(C)c3cnc(Nc4ccc(Cl)c(C(F)(F)F)c4)cn3)cc21 (stereo not shown) [Example 233] ≤ 100 nM

Look up IC50 for this compound: C[C@@H](NC(=O)c1cnn(C)c1CNCCF)c1ncc(C(=O)Nc2cc(C(F)(F)F)c(Cl)cn2)s1 [Example 131] 100 to 1000 nM

Look up IC50 for this compound: C[C@@H](NC(=O)c1cc2c(cn1)ncn2CCS(C)(=O)=O)c1cnc(Nc2ccc(C(F)(F)F)cc2)s1 [Example 185] ≤ 100 nM

Look up IC50 for this compound: C[C@@H](NC(=O)c1cnn2ccccc12)c1cc(C(=O)Nc2nc3cc(Cl)ccc3o2)on1 [Example 212] ≤ 100 nM

Look up IC50 for this compound: CC(NC(=O)c1cnn2ccccc12)c1cnc(Nc2ccc(C(F)(F)F)cc2)s1 (stereo not shown) [Example 224] ≤ 100 nM

Look up IC50 for this compound: C[C@@H](NC(=O)c1cc2c(cn1)ncn2C1CN(C(=O)OC(C)(C)C)C1)c1cnc(Nc2ccc(C(F)(F)F)cc2)s1 [Example 24] ≤ 100 nM

Look up IC50 for this compound: C[C@@H](NC(=O)c1cnn(-c2ccccn2)c1)c1ncc(C(=O)Nc2cc(C(F)(F)F)c(Cl)cn2)s1 [Example 119] ≤ 100 nM

Look up IC50 for this compound: CC(C)n1cc(C(=O)N[C@H](C)c2ncc(C(=O)Nc3cc(C(F)(F)F)c(Cl)cn3)s2)cn1 [Example 134] 100 to 1000 nM

###

# Test system: phospho-ERK in melanoma derived WM-266-4 cells
# Assay Comment: Mechanistic cellular assay for Raf kinase activity (phospho-ERK, Bio-Plex)
# Assay type: cell-based
# Run Parameters: Homo sapiens, treated 1-2 hr at 37° C., serum free medium, read-out: pERK EC50
Endpoint Name: EC50

Look up EC50 for this molecule: `Cc1ccc(NC(=O)c2cc([C@@H](C)NC(=O)c3cnn4ccccc34)no2)cc1C(F)(F)F` ≤ 0.1 µM

Look up EC50 for this molecule: Cc1nc(C(C)NC(=O)c2cc3c(cn2)ncn3C)c(C)nc1Nc1ccc(C(F)(F)F)cc1 (stereo not drawn) 1 to 10 µM

Look up EC50 for this molecule: `CC(=O)Nc1cccc(C(=O)N[C@H](C)c2ncc(C(=O)Nc3cc(C(F)(F)F)c(Cl)cn3)s2)n1` 1 to 10 µM

Look up EC50 for this molecule: CC(NC(=O)c1cnn2cc(-c3cccnc3)ccc12)c1ncc(C(=O)Nc2cc(C(F)(F)F)c(Cl)cn2)s1 (stereo not drawn) ≤ 0.1 µM

Look up EC50 for this molecule: `C[C@H](NC(=O)c1cc2c(cn1)ncn2C1CCC1)c1cnc(Nc2ccc(C(F)(F)F)cc2)cn1` 1 to 10 µM

Look up EC50 for this molecule: CC(NC(=O)c1cc2c(cn1)nc(N)n2C)c1cnc(Nc2cnc(C(C)(C)C)nc2)s1 (stereo not drawn) ≤ 0.1 µM

Look up EC50 for this molecule: `C[C@@H](NC(=O)c1cnc2n1CCCCN2)c1ncc(C(=O)Nc2cc(C(F)(F)F)c(Cl)cn2)s1` ≤ 0.1 µM

Look up EC50 for this molecule: `C[C@@H](NC(=O)c1cnc2[nH]ccc2c1)c1ncc(C(=O)Nc2cc(C(F)(F)F)c(Cl)cn2)s1` ≤ 0.1 µM

Look up EC50 for this molecule: `C[C@@H](NC(=O)c1cnc2n1CCCCC2)c1ncc(C(=O)Nc2cc(C(F)(F)F)c(Cl)cn2)s1` ≤ 0.1 µM

Look up EC50 for this molecule: CC(NC(=O)c1cnn(C)c1N)c1cnc(Nc2ccc(C(F)(F)F)cc2)s1 (stereo not drawn) 0.1 to 1 µM

Look up EC50 for this molecule: `CNc1ncc(C(=O)N[C@H](C)c2ncc(C(=O)Nc3cc(C(F)(F)F)c(Cl)cn3)s2)n1C` 1 to 10 µM

Look up EC50 for this molecule: `C[C@@H](NC(=O)c1cc2c(cn1)ncn2C1CN(CCO)C1)c1cnc(Nc2ccc(C(F)(F)F)cc2)s1` ≤ 0.1 µM

Look up EC50 for this molecule: `C[C@@H](NC(=O)c1cc2c(cn1)ncn2C1CCC1)c1cnc(Nc2ccc(C(F)(F)F)cc2)s1` ≤ 0.1 µM

Look up EC50 for this molecule: `Cc1ccc2cc(C(=O)N[C@H](C)c3ncc(C(=O)Nc4cc(C(F)(F)F)c(Cl)cn4)s3)ccc2n1` 0.1 to 1 µM

Look up EC50 for this molecule: CC(NC(=O)c1cc2c(cn1)ncn2C)c1cnc(Nc2ccc(C(F)(F)F)cc2Cl)cn1 (stereo not drawn) [Example 265a] 0.1 to 1 µM
